# TESTED SYSTEM: GABAA receptors α5β3γ2 (GABA α5) (Homo sapiens, UniProt P18507+P31644)
# Construct: membranes
# Sequence (P31644 32-462): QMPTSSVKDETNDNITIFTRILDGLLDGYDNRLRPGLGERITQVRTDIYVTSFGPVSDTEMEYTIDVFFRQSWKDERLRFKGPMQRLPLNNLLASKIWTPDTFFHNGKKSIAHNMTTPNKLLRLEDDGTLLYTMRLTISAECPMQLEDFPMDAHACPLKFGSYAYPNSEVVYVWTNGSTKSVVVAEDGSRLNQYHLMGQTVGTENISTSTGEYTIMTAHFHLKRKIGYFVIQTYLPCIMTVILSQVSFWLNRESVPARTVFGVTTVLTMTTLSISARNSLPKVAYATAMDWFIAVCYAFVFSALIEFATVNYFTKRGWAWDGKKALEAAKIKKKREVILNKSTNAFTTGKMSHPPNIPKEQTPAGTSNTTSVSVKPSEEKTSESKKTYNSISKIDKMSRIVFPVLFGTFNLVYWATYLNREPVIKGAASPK
# Sequence (P28472 26-473 partner): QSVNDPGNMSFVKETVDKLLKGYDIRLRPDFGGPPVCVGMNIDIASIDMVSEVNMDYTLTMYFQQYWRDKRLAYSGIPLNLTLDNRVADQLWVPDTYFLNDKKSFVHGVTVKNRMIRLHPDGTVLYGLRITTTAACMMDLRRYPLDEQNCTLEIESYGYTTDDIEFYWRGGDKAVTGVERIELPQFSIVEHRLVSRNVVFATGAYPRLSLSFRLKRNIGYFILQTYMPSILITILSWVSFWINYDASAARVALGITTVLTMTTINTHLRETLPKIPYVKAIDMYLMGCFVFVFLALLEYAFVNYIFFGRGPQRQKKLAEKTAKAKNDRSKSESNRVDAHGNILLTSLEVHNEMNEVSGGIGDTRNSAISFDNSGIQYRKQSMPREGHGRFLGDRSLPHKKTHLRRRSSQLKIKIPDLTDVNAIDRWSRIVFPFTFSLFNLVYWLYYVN
# Sequence (P18507 40-467 limits assumed): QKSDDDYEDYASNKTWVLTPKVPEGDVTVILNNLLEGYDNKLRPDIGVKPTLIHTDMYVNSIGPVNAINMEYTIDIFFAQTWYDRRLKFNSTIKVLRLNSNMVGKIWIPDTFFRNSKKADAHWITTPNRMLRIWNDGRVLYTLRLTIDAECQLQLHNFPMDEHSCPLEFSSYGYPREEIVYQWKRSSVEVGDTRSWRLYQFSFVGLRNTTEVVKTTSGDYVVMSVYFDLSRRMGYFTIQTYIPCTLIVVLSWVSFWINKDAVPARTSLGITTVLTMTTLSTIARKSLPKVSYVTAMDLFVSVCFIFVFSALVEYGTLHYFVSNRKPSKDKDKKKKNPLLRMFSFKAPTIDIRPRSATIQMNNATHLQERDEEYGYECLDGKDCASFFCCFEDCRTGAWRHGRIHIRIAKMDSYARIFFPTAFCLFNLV
# EXPERIMENT NOTES: Binding activity on GABAAR: inhibition of [3H]Ro15-1788 binding, membranes of Ltk cells
# REPORTED CONDITIONS: α5β3γ2 Ltk cell membranes
pKi: −log10 of the molar value.
READOUT LABEL: pKi

In the examples that follow, each entry is paired with its recorded pKi.
COc1ccc2c(c1)-n1nncc1Cc1c(C#Cc3cn(C)nc3OC)ncn1-2 [Compound 735] = > 7.00
COc1ncc(C#Cc2ncn3c2Cc2cnnn2-c2cc(Cl)ccc2-3)cc1F [Compound 734] = > 7.00
COCc1nnn2c1Cc1c(C#Cc3cn(C)nc3OC)ncn1-c1ccc(Cl)cc1-2 [Compound 738] = > 7.00

Problem: Bench note: what pKi did COCc1nnn2c1Cc1c(C#Cc3cnc(C)n3C)ncn1-c1ccc(Cl)cc1-2 [Compound 740] show?
Solution: > 7.00

Problem: Follow-up item: COCc1nnc2n1Cc1c(C#Cc3cn(C)nc3OC)ncn1-c1ccc(OC)cc1-2 [Compound 736]
Solution: > 7.00

----------
# TESTED SYSTEM: GABAA receptors α5β3γ2 (GABA α5) (Homo sapiens, UniProt P18507+P31644)
# Construct: membranes
# EXPERIMENT NOTES: Binding activity on GABAAR: inhibition of [3H]Ro15-1788 binding, membranes of Ltk cells
# REPORTED CONDITIONS: α5β3γ2 Ltk cell membranes
READOUT LABEL: Ki

Please review the entries below; each comes with its answer.
COCc1nnn2c1Cc1c(C#Cc3cnc(C)[nH]3)ncn1-c1ccc(Cl)cc1-2 = < 0.1 µM
COc1ncc(C#Cc2ncn3c2Cc2cnnn2-c2cc(Cl)ccc2-3)cc1C(F)(F)F = < 0.1 µM
COc1ccc2c(c1)-n1nncc1Cc1c(C#Cc3cnc(OC)c(F)c3)ncn1-2 = 0.1 to 1 µM
COCc1nnc2n1Cc1c(C#Cc3cn(C)nc3OC)ncn1-c1ccc(Cl)cc1-2 = < 0.1 µM

Problem: Kindly state the measured Ki obtained for COCc1nnc2n1Cc1c(C#Cc3cnc(OC)c(C(F)(F)F)c3)ncn1-c1ccc(OC)cc1-2 with GABAA receptors α5β3γ2 (GABA α5) (Homo sapiens, UniProt P18507+P31644).
Solution: 0.1 to 1 µM
